Biological target: full-length beta-Catenin (Uniprot ID P35222) (Homo sapiens, UniProt P35222)
Construct: 10 nM full-length beta-Catenin (Uniprot ID P35222)
Sequence (P35222 1-781): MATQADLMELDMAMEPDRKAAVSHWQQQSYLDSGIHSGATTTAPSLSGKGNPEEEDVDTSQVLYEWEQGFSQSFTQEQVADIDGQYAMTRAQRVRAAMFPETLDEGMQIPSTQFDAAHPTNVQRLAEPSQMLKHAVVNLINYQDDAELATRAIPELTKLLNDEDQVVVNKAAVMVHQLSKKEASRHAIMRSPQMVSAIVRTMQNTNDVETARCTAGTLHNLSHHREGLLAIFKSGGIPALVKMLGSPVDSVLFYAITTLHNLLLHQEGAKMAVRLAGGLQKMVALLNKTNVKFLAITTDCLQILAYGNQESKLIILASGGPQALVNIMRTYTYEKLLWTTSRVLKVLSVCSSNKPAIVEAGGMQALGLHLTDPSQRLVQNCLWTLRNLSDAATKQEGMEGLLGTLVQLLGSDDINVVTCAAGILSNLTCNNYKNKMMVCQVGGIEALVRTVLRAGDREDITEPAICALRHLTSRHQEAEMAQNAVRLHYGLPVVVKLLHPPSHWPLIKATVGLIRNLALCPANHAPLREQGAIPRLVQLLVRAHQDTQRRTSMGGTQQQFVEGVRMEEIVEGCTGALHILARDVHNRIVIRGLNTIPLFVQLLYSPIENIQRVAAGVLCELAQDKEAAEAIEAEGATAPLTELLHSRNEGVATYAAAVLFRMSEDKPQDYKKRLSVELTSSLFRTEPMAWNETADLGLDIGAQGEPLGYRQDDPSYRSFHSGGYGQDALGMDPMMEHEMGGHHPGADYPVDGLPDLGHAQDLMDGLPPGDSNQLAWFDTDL
Test: Fluorescence polarization IC50 (beta-catenin / 5FAM-TCF4 10-53 competition)
Format: binding
Settings: fluorescence polarization; read-out: beta-Catenin FP IC50
measured parameter: IC50 (nM)
Express your answer in nM, writing the number without its unit.

Worked cases, answers included:
compound	system tested	result unit	IC50
CC(=O)N1CCC[C@]12CC=CCCCC1(CCCC=CCCCCCC[C@@](C)(C(=O)N[C@@H](Cc3cccs3)C(=O)N[C@@H](Cc3csc4ccccc34)C(=O)N[C@@H](CCC(N)=O)C(N)=O)NC(=O)[C@H](CCC(N)=O)NC(=O)[C@H](Cc3ccccc3)NC(=O)[C@H](C)NC(=O)[C@H](C)NC(=O)[C@H](CCC(=O)O)NC(=O)[C@H](CC(=O)O)NC1=O)NC(=O)[C@H](C)NC(=O)[C@H](CC(=O)O)NC2=O (stereo partly drawn) [I-428]	full-length beta-Catenin (Uniprot ID P35222) (Homo sapiens, UniProt P35222)	nM	60
CC[C@H](C)[C@@H]1NC(=O)[C@H](CC(=O)O)NC(=O)[C@]2(CC=CCCCC3(CCCC=CCCCCCC[C@@](C)(C(=O)N[C@@H](Cc4ccsc4)C(=O)N[C@@H](Cc4csc5ccccc45)C(=O)N[C@@H](CCC(N)=O)C(N)=O)NC(=O)[C@H](CC(N)=O)NC(=O)[C@H](Cc4ccccc4)NC(=O)[C@H](C)NC(=O)[C@H](C)NC(=O)[C@H](CC(=O)O)NC(=O)[C@H](CC(=O)O)NC3=O)NC1=O)CCCN2C(C)=O (stereo partly drawn) [I-551]	full-length beta-Catenin (Uniprot ID P35222) (Homo sapiens, UniProt P35222)	nM	45

# evaluate next
Task: Query (compound): CC(=O)N1CCC[C@]12CC=CCCCC1(CCCC=CCCCOC(=O)N3CC[C@@](C(=O)N[C@@H](Cc4ccccc4Cl)C(=O)N[C@@H](Cc4csc5ccccc45)C(=O)N[C@@H](CC(C)C)C(N)=O)(C3)NC(=O)[C@H](CO)NC(=O)[C@H](Cc3ccccc3)NC(=O)[C@H](C)NC(=O)[C@H](C)NC(=O)[C@H](CC(=O)O)NC(=O)[C@H](CC(=O)O)NC1=O)NC(=O)[C@H](Cc1ccccc1)NC(=O)[C@H](CC(=O)O)NC2=O (stereo partly drawn) [I-1144] ; field requested: IC50
Result: 28

Where do the numbers come from? From patent US20240116985A1.
